// provenance: patent US20260184768A1

Collected koff values appear next to each entry.
biological target: T1, full-length PcrV.6xhis (Pseudomonas aeruginosa); assay: SPR (Biacore T200), mAb captured via anti-human Fc, PcrV injected, 37 C
T1 construct: Recombinant full-length V-tip protein of the type 3 secretion system, His-tagged; also called full-length PcrV with a C-terminal hexahistidine tag

binder: REGN3977 (antibody, V domains shown, also called Control III; REGN3977-Control III) VH: QVQLKQSGPGLVQPSQSLSITCTVSGFSLTSYGVHWVRQSPGKGLEWLGVIWSGGDTDYNAAFISRLSISKDNSKSQLFFKMNSLRATDTAIYYCARNRGDIYYDFTYAMDYWGQGTSVTVSS VL: DIQMTQSPASLSASVGETVTITCRASGNIQNYLAWYQQTQGKSPQLLVYSAKTLADGVPSRFSGSGSGTQYSLKINSLQPEDFGSYYCQHFWSTPYTFGGGTKLEIKR
recorded.value: 0.000917 s⁻¹
//
binder: REGN3514 (antibody, V domains shown, also called Control I; Control I-REGN3514) VH: EMQLLESGGGLVQPGGSLRLSCAASGFTFSSYAMNWVRQAPGEGLEWVSAITISGITAYYTDSVKGRFTISRDNSKNTLYLQMNSLRAGDTAVYYCAKEEFLPGTHYYYGMDVWGQGTTVTVSS VL: AIQMTQSPSSLSASVGDRVTITCRASQGIRNDLGWYQQKPGKAPKLVIYSASTLQSGVPSRFSGSGSGTDFTLSISSLQPDDFATYYCLQDYNYPWTFGQGTKVEIKR
recorded.value: 0.000196 s⁻¹

--- query ---
Any idea what koff was measured for H1H29332P (antibody, V domains shown) VH: EVQLVESGGDLVQPGGSLRLSCKASGFTFSTFAMNWVRQAPGRGLEWVSAIGASGYSTYYVDSMKGRFTISRDNSKNTLYLQMNSLGAEDTAVYYCAKEYSVSSNYYYGMDVWGQGTTVTVSS VL: DIQMTQSPSSLSASVGDRVTITCRASQTIRRYLNWYQQKAGKAPKLLIYAASSLLSGVPSRFSASGSGTDFTLTISSLQPEDFSTYYCQQTYSIPITFGQGTRLEIKR ?
2.68e-05 s⁻¹
